Test system: Escherichia coli Nissle 1917
protocolDescription: area under OmniLog respiration curve over 48 h (OmniLog units x h); higher = more growth / nutrient utilisation; extreme values may be limits of the assay
measurementParameters: nutrient role: C-Source, carboxylic acid; incubation: 48 h, 37 °C
Okay, here is how we bin by area under OmniLog respiration curve: category 1 (below 30), category 2 (30 to below 8000), category 3 (8000 or more)

*Q* Category of CC(=O)N[C@H]1[C@H]([C@H](O)[C@H](O)CO)OC(O)(C(=O)O)C[C@@H]1O (some centres undefined) :
*A* category 2

*Q* Band of O=C(O)[C@H](O)[C@@H](O)[C@H](O)[C@H](O)CO ?
*A* category 3

*Q* Any idea which band O=C(O)[C@@H](O)[C@H](O)C(=O)O is in?
*A* category 1

*Q* Which class holds O=C(O)[C@H](O)[C@@H](O)C(=O)O ?
*A* category 2

*Q* Hello team, could you let me know which band the following molecule falls into: O=C(O)CC(O)(CC(=O)O)C(=O)O
*A* category 2

*Q* Sort into band: C/C(=C/C(=O)O)C(=O)O
*A* category 1

*Q* Category of O=C(O)[C@@H](O)[C@@H](O)[C@H](O)[C@@H](O)C(=O)O , please.
*A* category 3
